details: 298.15 K; 101.33 kPa; Liquid; Vibrating tube method
MEASURED PROPERTY: mass density (kg/m3)

- COMPOUND: "CN(C)C=O [dimethylformamide]"
  U: "kg/m3"
  mass density: 944.34
- COMPOUND: "CCCCCCC(C)=O [2-octanone]"
  U: "kg/m3"
  mass density: 814.32
- COMPOUND: "C[S+](C)[O-] [dimethyl sulfoxide]"
  U: "kg/m3"
  mass density: 1095.32
- COMPOUND: "CCCCCCCCO [octan-1-ol]"
  U: "kg/m3"
  mass density: 821.67
- COMPOUND: "CCCCCCO [hexan-1-ol]"
  U: "kg/m3"
  mass density: 815.21
- COMPOUND: "CCCCCCCC(=O)O [octanoic acid]"
  U: "kg/m3"
  mass density: 906.02
- COMPOUND: "CCCCCC(=O)O [hexanoic acid]"
  U: "kg/m3"
  mass density: 922.06

FYI, the data here is from the NIST ThermoML archive (doi:10.1016/j.jct.2011.07.018).
